Origin of values: patent USRE48461E1

Tested on: AR mRNA
Assay: Dose-dependent antisense inhibition of human AR in HuVEC cells (electroporation, qRT-PCR RTS3559, IC50)
Assay type: cell-based
Conditions: 125.0 nM; HuVEC, ~16 h; Table 8
Oligonucleotides are written 5' to 3', each unit as a sugar letter and its base; * is a phosphorothioate linkage, no mark a phosphodiester; rarer units and linkages stand in square brackets, end groups in braces. Plain capitals give the bases only. e = 2'-O-(2-methoxyethyl) (MOE); k = constrained ethyl (cEt); [5mC] = 5-methylcytosine; d = 2'-deoxy (DNA)
Assign class by percent inhibition of AR: not lower than 60% means criterion met; lower than 60% means criterion not met.

{"SUBSTANCE": "560131 (antisense kT*kT*kG*dA*dT*dT*dT*dA*dA*dT*dG*dG*kT*kT*kG*e[5mC]) [compound 560131]", "LABEL_VALUE": "criterion met"}
{"SUBSTANCE": "569222 (antisense eT*eT*kG*kA*kT*dT*dT*dA*dA*dT*dG*dG*dT*kT*kG*k[5mC]) [compound 569222]", "LABEL_VALUE": "criterion met"}
{"SUBSTANCE": "569228 (antisense eT*eT*kG*kA*kT*dT*dT*dA*dA*dT*dG*dG*kT*kT*kG*e[5mC]) [compound 569228]", "LABEL_VALUE": "criterion met"}
{"SUBSTANCE": "569216 (antisense eT*kG*kA*kT*dT*dT*dA*dA*dT*dG*dG*dT*kT*kG*k[5mC]*eA) [compound 569216]", "LABEL_VALUE": "criterion met"}
{"SUBSTANCE": "560098 (kT*kG*kA*dT*dT*dT*dA*dA*dT*dG*dG*dT*dT*kG*k[5mC]*kA; further chemistry not given here) [compound 560098]", "LABEL_VALUE": "criterion met"}
{"SUBSTANCE": "549458 (kG*kT*kT*dG*dA*dT*dT*dT*dA*dA*dT*dG*dG*kT*kT*kG) [compound 549458]", "LABEL_VALUE": "criterion not met"}
{"SUBSTANCE": "569213 (antisense kT*kG*kA*dT*dT*dT*dA*dA*dT*dG*dG*dT*kT*kG*k[5mC]*eA) [compound 569213]", "LABEL_VALUE": "criterion met"}
{"SUBSTANCE": "569236 (antisense eT*kG*kA*kT*dT*dT*dA*dA*dT*dG*dG*kT*kT*kG*e[5mC]*eA) [compound 569236]", "LABEL_VALUE": "criterion not met"}
{"SUBSTANCE": "560137 (antisense TTGATTTAATGGTTGC; all C 5-methyl, all phosphorothioate, sugars by position not given here; further chemistry not fully specified) [compound 560137]", "LABEL_VALUE": "criterion met"}

----------
Measured percent inhibition of AR, 750.0 nM by item
Tested on: AR mRNA
Assay: Dose-dependent antisense inhibition of human AR in HuVEC cells (electroporation, qRT-PCR RTS3559, IC50)
Type: cell-based
Conditions: Table 29; 750.0 nM, HuVEC, electroporation, approximately 16 hours
Oligonucleotides are written 5' to 3', each unit as a sugar letter and its base; * is a phosphorothioate linkage, no mark a phosphodiester; rarer units and linkages stand in square brackets, end groups in braces. Plain capitals give the bases only. k = constrained ethyl (cEt); [5mC] = 5-methylcytosine; d = 2'-deoxy (DNA)

{"SUBSTANCE": "583635 (antisense k[5mC]*kT*kG*dG*d[5mC]*dT*d[5mC]*d[5mC]*dG*d[5mC]*dA*d[5mC]*dT*k[5mC]*kG*kG) [compound 583635]", "ASSAYED_SYSTEM": "AR mRNA", "percent inhibition of AR, 750.0 nM [%]": 69}
{"SUBSTANCE": "583649 (antisense kA*kG*kG*d[5mC]*dT*d[5mC]*dA*d[5mC]*dA*dG*dT*d[5mC]*dT*kG*kT*k[5mC]) [compound 583649]", "ASSAYED_SYSTEM": "AR mRNA", "percent inhibition of AR, 750.0 nM [%]": 68}
{"SUBSTANCE": "583556 (antisense kA*kA*k[5mC]*dT*dT*d[5mC]*dA*d[5mC]*d[5mC]*dG*dA*dA*dG*kA*kG*kG) [compound 583556]", "ASSAYED_SYSTEM": "AR mRNA", "percent inhibition of AR, 750.0 nM [%]": 68}
